system: Fibroblast; experiment: Multiplex assay against human fibroblast; type: toxicity, cell-based; conditions: 12 h, 10 µM, compound concentration 10 uM, number of replicates 2

| QUERY SMILES | TARGET SYSTEM | READING UNIT | Population Healthy Nuclei (%) |
| --- | --- | --- | --- |
| COc1ccncc1C(=O)NC(=O)Nc1ccc(-c2ccccc2)c(C(F)(F)F)c1 | Fibroblast | % | 69 |
| CS(=O)(=O)c1ccc(C(=O)Nc2cc(F)c(F)c(COc3cc(F)c(Br)cc3CN3CC[C@H](O)C3)c2)c(Cl)c1.O=CO | Fibroblast | % | 29 |
| CS(=O)(=O)c1ccc(C(=O)Nc2ccc(F)c(COc3ccc(Br)cc3CNCCO)c2)c(Cl)c1.O=CO | Fibroblast | % | 49 |
